Values from ChEMBL document CHEMBL1944596

# target-desc: UniProt:P05129
# test-details: Binding affinity to PKCgamma assessed as change in thermal denaturation at 10 uM by thermal stability shift assay

compound: Cn1c2c(Cl)c(Cl)ccc2c2cc(N)[nH]c(=O)c21
ΔTm [°C]: 0.2
//
compound: Cn1c2c(Cl)c(Cl)ccc2c2cn[nH]c(=O)c21
ΔTm [°C]: 1.2
//
compound: Cn1c2c(c3ccc(Cl)c(Cl)c31)C(C#N)C(C)(C)NC2=O (stereo unspecified)
ΔTm [°C]: 1.7
//
compound: Cn1c2c(c3ccc(Cl)c(Cl)c31)C(C#N)C1(CCOCC1)NC2=O (stereo unspecified)
ΔTm [°C]: 1
//
compound: Cn1c2c(Cl)c(Cl)ccc2c2cc[nH]c(=O)c21
ΔTm [°C]: 1.2
//
compound: Cn1c2c(c3ccc(Cl)c(Cl)c31)C(C#N)C1(CCN(C(=O)OC(C)(C)C)CC1)NC2=O (racemic)
ΔTm [°C]: 0.2
//
compound: CC1(C)NC(=O)c2[nH]c3c(Cl)c(Cl)ccc3c2C1C#N (stereo unspecified)
ΔTm [°C]: 0.7
//
compound: Cn1c2c(c3ccc(Cl)c(Cl)c31)C(CN)C(C)(C)NC2=O (racemic)
ΔTm [°C]: 1.7
//
compound: N#CC1c2c([nH]c3c(Cl)c(Cl)ccc23)C(=O)NC12CCCCC2 (racemic)
ΔTm [°C]: 1.3
//
compound: CCN1CCC2(CC1)NC(=O)c1c(c3ccc(Cl)c(Cl)c3n1C)C2C#N (racemic)
ΔTm [°C]: 4.5
//
compound: CC(=O)NCC1c2c(n(C)c3c(Cl)c(Cl)ccc23)C(=O)NC1(C)C (racemic)
ΔTm [°C]: 0
//
compound: CN1CCC2(CC1)NC(=O)c1c(c3ccc(Cl)c(Cl)c3n1C)C2C#N (racemic)
ΔTm [°C]: 3.9
//
compound: Cn1c2c(c3ccccc31)C(C#N)C(C)(C)NC2=O (stereo unspecified)
ΔTm [°C]: 0.4
//
compound: CCC1(CC)NC(=O)c2c(c3ccc(Cl)c(Cl)c3n2C)C1C#N (stereo unspecified)
ΔTm [°C]: 0.8
//
compound: Cn1c2c(c3ccc(Cl)c(Cl)c31)C(C#N)C1(CCNCC1)NC2=O (racemic)
ΔTm [°C]: 6.1
//
compound: Cn1c2c(c3ccc(Cl)c(Cl)c31)C(C#N)C1(CCCC1)NC2=O (stereo unspecified)
ΔTm [°C]: 0.5
